target: GABAA α4β3δ (Homo sapiens, UniProt P28472+P48169); construct: expressed in transfected cells; host or cells: HEK293 expressing the Tetracycline repressor protein; experiment: Automated patch clamp electrophysiology (SyncroPatch), PAM mode, GABAA α4β3δ cell line; format: cell-based; conditions: PAM mode, HEK293 cells expressing human GABAA α4β3δ, GABA EC20 10 μM; read-out: GABAA α4β3δ PAM EC50
Sequence (P48169 36-554): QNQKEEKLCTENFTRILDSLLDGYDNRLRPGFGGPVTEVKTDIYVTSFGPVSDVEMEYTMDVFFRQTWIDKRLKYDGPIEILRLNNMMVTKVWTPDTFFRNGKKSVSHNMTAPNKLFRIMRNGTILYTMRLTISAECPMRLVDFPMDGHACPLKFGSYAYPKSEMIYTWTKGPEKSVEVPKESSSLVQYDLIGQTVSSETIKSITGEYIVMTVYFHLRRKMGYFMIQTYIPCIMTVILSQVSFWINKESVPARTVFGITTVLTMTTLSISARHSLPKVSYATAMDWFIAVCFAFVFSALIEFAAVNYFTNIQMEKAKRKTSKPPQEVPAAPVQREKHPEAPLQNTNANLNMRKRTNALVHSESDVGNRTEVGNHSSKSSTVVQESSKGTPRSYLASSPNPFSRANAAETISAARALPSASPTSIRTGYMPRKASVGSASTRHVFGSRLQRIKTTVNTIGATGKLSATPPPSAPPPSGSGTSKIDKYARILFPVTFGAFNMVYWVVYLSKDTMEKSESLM
Sequence (P28472 26-473): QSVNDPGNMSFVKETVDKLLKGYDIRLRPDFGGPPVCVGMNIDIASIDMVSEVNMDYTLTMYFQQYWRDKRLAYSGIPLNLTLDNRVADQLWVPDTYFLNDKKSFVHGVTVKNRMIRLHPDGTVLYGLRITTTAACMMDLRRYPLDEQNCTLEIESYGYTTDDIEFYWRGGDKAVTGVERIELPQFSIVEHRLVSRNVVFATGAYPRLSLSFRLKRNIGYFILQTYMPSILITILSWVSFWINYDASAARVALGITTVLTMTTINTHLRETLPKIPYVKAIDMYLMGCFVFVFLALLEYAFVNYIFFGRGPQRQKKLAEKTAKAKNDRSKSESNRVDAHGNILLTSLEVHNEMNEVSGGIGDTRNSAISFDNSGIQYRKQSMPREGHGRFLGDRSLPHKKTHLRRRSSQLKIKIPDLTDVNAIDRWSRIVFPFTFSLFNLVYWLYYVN
Sequence (O14764 17-452 partner limits assumed): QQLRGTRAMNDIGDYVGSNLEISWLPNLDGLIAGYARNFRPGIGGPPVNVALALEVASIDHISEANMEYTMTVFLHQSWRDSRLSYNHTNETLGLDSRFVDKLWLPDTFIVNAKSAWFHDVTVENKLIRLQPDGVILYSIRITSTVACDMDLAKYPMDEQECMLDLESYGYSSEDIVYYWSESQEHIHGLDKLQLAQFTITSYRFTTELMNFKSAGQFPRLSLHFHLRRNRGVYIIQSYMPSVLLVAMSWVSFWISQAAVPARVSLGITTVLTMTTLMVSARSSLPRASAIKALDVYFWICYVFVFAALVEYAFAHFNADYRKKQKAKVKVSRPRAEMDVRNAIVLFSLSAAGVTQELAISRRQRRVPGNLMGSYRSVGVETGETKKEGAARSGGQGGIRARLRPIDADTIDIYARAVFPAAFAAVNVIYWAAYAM
pEC50: −log10 of the molar value.
Measured pEC50, listed per entry.

> print(dat)
                                   molecule  measured.parameter  measured.value
1  C[C@@]1(O)CC[C@H]2[C@H](CC[C@@H]3[C@@H]2CC[C@]2(C)[C@@H](C4(F)COC4)CC[C@@H]32)C1 [Example 10]               pEC50          > 6.30
2  C[C@@]1(O)CC[C@H]2[C@H](CC[C@@H]3[C@@H]2CC[C@]2(C)[C@@H](C4COC4)CC[C@@H]32)C1 [Example 23]               pEC50          > 6.30
3  CC1([C@H]2CC[C@H]3[C@@H]4CC[C@@H]5C[C@](C)(O)CC[C@@H]5[C@H]4CC[C@]23C)COC1 [Example 2]               pEC50          > 6.30

Problem: Quick check: pEC50 of C[C@@]1(O)CC[C@H]2[C@H](CC[C@@H]3[C@@H]2CC[C@]2(C)[C@@H](C4(C#N)COC4)CC[C@@H]32)C1 [Example 18] ?
Result: > 6.30

Problem: Quick check: pEC50 of C[C@@]1(O)CC[C@H]2[C@H](CC[C@@H]3[C@@H]2CC[C@]2(C)[C@@H](C4(CC#N)COC4)CC[C@@H]32)C1 [Example 13] ?
Result: 5.82 to 6.00

Problem: Quick check: pEC50 of CC1([C@H]2CC[C@H]3[C@@H]4CC[C@@H]5C[C@H](O)CC[C@]5(C)[C@H]4CC[C@]23C)COC1 [Example 6] ?
Result: 5.82 to 6.00

Problem: Quick check: pEC50 of C[C@@]1(O)CC[C@H]2[C@H](CC[C@@H]3[C@@H]2CC[C@]2(C)[C@@H](C4(Cn5cc(C#N)cn5)COC4)CC[C@@H]32)C1 [Example 15] ?
Result: < 5.82

Problem: Quick check: pEC50 of CC1([C@H]2CC[C@H]3[C@@H]4CC[C@H]5C[C@](C)(O)CC[C@]5(C)[C@H]4CC[C@]23C)COC1 [Example 1] ?
Result: < 5.82

Problem: Quick check: pEC50 of C[C@@]1(O)CC[C@H]2[C@H](CC[C@@H]3[C@@H]2CC[C@]2(C)[C@@H](C4(C5CC5)COC4)CC[C@@H]32)C1 [Example 21] ?
Result: < 5.82

Problem: Quick check: pEC50 of CC1([C@H]2CC[C@H]3[C@@H]4CC[C@H]5C[C@H](O)CC[C@]5(C)[C@H]4CC[C@]23C)COC1 [Example 5] ?
Result: < 5.82

Problem: Quick check: pEC50 of CC1([C@H]2CC[C@H]3[C@@H]4CC[C@H]5C[C@H](O)CC[C@]5(C)[C@H]4CC[C@]23C)CCO1 (some centres unmarked) [Example 3] ?
Result: 5.82 to 6.00
